All figures here come from PubChem BioAssay (NCI).

System: OVCAR-5 ovarian
Assay: NCI-60 one-dose screen, 48 h (100 = growth as untreated, 0 = no growth, -100 = all killed)
Details: 10 µM unless noted
This is part of a sample that, as a whole, favours compounds with a hit. Of some 83,000 tested, about 20% had one in any assay. Activity calls are given as the source filed them. How the source made its calls: active means growth percent below 10; inactive means the rest.
Measure: growth

[[record]]
compound = "CCCNC(=O)Oc1ccc(/C(=C(\\C)c2ccccc2)c2ccc(OCCCN(C)C)cc2)cc1"
measure = "growth"
val = "80.5% (inactive)"

[[record]]
compound = "CC(C)(C)CC(C)(C)n1nnnc1C(NC12CC3CC(CC(C3)C1)C2)c1ccccc1 (stereo not drawn)"
measure = "growth"
val = "103% (inactive)"

[[record]]
compound = "CCCCCCCCCCCCCCCC[N+]1(C)CCN(SN2CC[N+](C)(CCCCCCCCCCCCCCCC)CC2)CC1"
measure = "growth"
val = "50% (inactive)"

[[record]]
compound = "NCCCCCCNc1cc(-c2cccc(OC(F)(F)F)c2)nc2ccc(N3CCCC3)cc12"
measure = "growth"
val = "12.6% (inactive)"

[[record]]
compound = "O=C(c1ccccc1)N1N=C(c2ccc(-n3ccc(C(F)(F)F)n3)c(F)c2)CC1c1ccc[nH]1 (stereo not drawn)"
measure = "growth"
val = "104% (inactive)"

[[record]]
compound = "CCc1ccc(-c2cn3ccnc3c(-c3ccc4ncn(Cc5ccccc5)c4c3)n2)cc1"
measure = "growth"
val = "85.1% (inactive)"

[[record]]
compound = "CC(C)(C)c1ccc(NS(=O)(=O)c2ccc3nc(NC(=O)c4cnccn4)[nH]c3c2)cc1"
measure = "growth"
val = "57% (inactive)"

[[record]]
compound = "O=S(=O)(Nc1ccc(-n2cnc3cc(-c4ccc(O)cc4)ccc32)cc1)c1ccccc1"
measure = "growth"
val = "111% (inactive)"


---

Reported growth values for a set of compounds
Test system: M14 melanoma
Assay: NCI-60 one-dose screen, 48 h (100 = growth as untreated, 0 = no growth, -100 = all killed)
Conditions: 10 µM unless noted
Description: Growth inhibition of the M14 human tumor cell line is measured as a screen for anti-cancer activity. Cells are grown in 96 well plates and exposed to the test compound for 48 hours. Compounds are tested at a single concentration, which is 10^-5 M for most compounds. The reported endpoint is percent growth (GI% or GIPRCNT), where numbers from 0 - 100% represent growth inhibition, and numbers from -100% - 0 represent cell death. For example, a value of 40 represents 60% growth inhibition. […]
This is part of a sample that, as a whole, favours compounds with a hit. Of some 83,000 tested, about 20% had one in any assay.
Measure: growth (%)

[[record]]
compound = "CC(=O)[C@@H]1CC[C@]2(C(N)=O)CC[C@]3(C)[C@H](CC[C@@H]4[C@@]5(C)CCCNC(C)(C)[C@@H]5CC[C@]43C)[C@@H]12"
val = 77.5

[[record]]
compound = "N#CC1C(C#N)C2c3ccccc3C=CN2C1C(=O)c1ccc(Br)cc1 (configuration not stated)"
val = 104

[[record]]
compound = "CC(C)N1C(=O)/C(=C2\\SC(=S)N(C(C)C)C2=O)SC1=S"
val = 95

[[record]]
compound = "COC(=O)/C=C1\\S/C(=N\\NC(=O)c2cc3ccc2/C=C\\c2ccc(cc2)/C=C\\3)N(c2ccccc2)C1=O"
val = 53.1

[[record]]
compound = "COc1cc(F)c(/C=C/c2cc(/C=C/c3cc(OC)c(OC)cc3F)on2)cc1OC"
val = 80.9

[[record]]
compound = "CCN(Cc1ccccc1)c1ccc(C=O)cc1"
val = 102

[[record]]
compound = "COC1=CC(=O)c2ccccc2C1=O"
val = 87.2

[[record]]
compound = "COc1cc(C2C3=C(COC3=O)N(CCO)c3cc4c(cc32)CCC4)cc(OC)c1OC (configuration not stated)"
val = -34

[[record]]
compound = "N#Cc1cccc(-c2ccc3c(c2)NC(=O)/C3=C\\c2ccc[nH]2)c1"
val = 56.4

[[record]]
compound = "COc1cc(NCCCCCNC(C)(C)C)c2ncccc2c1"
val = 104

[[record]]
compound = "O=C(CCN1CCCC1)Nc1ccc2c(NCCc3ccccc3)c3ccccc3nc2c1"
val = -61.8

[[record]]
compound = "Cc1cc2nc3c4cc([N+](=O)[O-])ccc4n(CCN(C)C)c3nc2cc1C"
val = -27.3


---

System: HCT-15 colon
Assay: NCI-60 one-dose screen, 48 h (100 = growth as untreated, 0 = no growth, -100 = all killed)
Details: 10 µM unless noted
Compounds without any hit were thinned out: in the full panel of roughly 83,000, 20% have a hit. Active and inactive are the calls of the source. Rule for the calls: active = growth percent below 10; inactive = the rest.
Measure: growth

[[record]]
molecule = "CC(C)(C)CC(C)(C)n1nnnc1C(NC12CC3CC(CC(C3)C1)C2)c1ccccc1 (stereo not drawn)"
test_system = "HCT-15 colon"
measure = "growth"
val = "84.5% (inactive)"

[[record]]
molecule = "CC(=O)Nc1cccc(-c2ccc3c(c2)NC(=O)/C3=C\\c2ccc[nH]2)c1"
test_system = "HCT-15 colon"
measure = "growth"
val = "27.2% (inactive)"

[[record]]
molecule = "COc1ccc(-c2nc([C@@H](C)Sc3nc(N)cc(N)n3)c(C)s2)cc1OCCN1CCOCC1"
test_system = "HCT-15 colon"
measure = "growth"
val = "103% (inactive)"


---

System: LOX IMVI melanoma
Assay: NCI-60 one-dose screen, 48 h
Details: 10 µM unless noted
This is part of a sample that, as a whole, favours compounds with a hit. Of some 83,000 tested, about 20% had one in any assay. The source made the active and inactive calls. Rule for the calls: active = growth percent below 10; inactive = the rest.
Outcome codes: True = active, False = inactive

[[record]]
molecule = "CC/C(=C\\c1ccc(OC)cc1)C(=O)c1ccc(OC)cc1"
assigned_class = "False"

[[record]]
molecule = "CCCNC(=O)Oc1ccc(/C(=C(\\C)c2ccccc2)c2ccc(OCCCN(C)C)cc2)cc1"
assigned_class = "False"

[[record]]
molecule = "NC(=NCc1ccccc1)C(N=Nc1ccccc1)C(=O)NCc1ccccc1 (configuration not stated)"
assigned_class = "False"

[[record]]
molecule = "CC1(C)c2[nH]c3ccccc3c2C[C@]2(C)[C@H]3C(=O)C=C4[C@@H]5C[C@@](C)(C(N)=O)CC[C@]5(C)CC[C@@]4(C)[C@]3(C)CC[C@@H]12"
assigned_class = "False"

[[record]]
molecule = "CC(=O)Nc1ccc(-n2cnc3cc(-c4ccc(OCCN5CCCCC5)cc4)ccc32)cc1"
assigned_class = "False"

[[record]]
molecule = "C=C(C)[C@@H]1CC[C@]2(C(=O)N3CCN(C)CC3)CC[C@]3(C)[C@H](CC[C@@H]4[C@@]5(C)C/C(=C/c6ccncc6)C(=O)C(C)(C)[C@@H]5CC[C@]43C)[C@@H]12"
assigned_class = "False"

[[record]]
molecule = "O=C(/C=C/c1ccc(F)cc1)c1ccc(NC(=O)N2CCN(c3cc4c(cc3F)c(=O)c(C(=O)O)cn4C3CC3)CC2)cc1"
assigned_class = "False"

[[record]]
molecule = "C=C1C(=O)O[C@H]2[C@H]1CC/C(CNC(=O)/C=C/c1ccccc1)=C\\CC[C@@]1(C)O[C@@H]21"
assigned_class = "True"

[[record]]
molecule = "Cc1ccc(C(=O)/C(=C/c2ccc([N+](=O)[O-])cc2)SCc2ccc(Cl)cc2)cc1"
assigned_class = "True"

[[record]]
molecule = "NS(=O)(=O)c1ccc(CCN2C(=O)C3C(C2=O)C2(Cl)C(Cl)=C(Cl)C3(Cl)C2(Cl)Cl)cc1 (configuration not stated)"
assigned_class = "False"

[[record]]
molecule = "O=C(Cc1ccc(/C=C/C(=O)c2ncc[nH]2)cc1)Nc1ccc(Cl)cc1"
assigned_class = "True"

[[record]]
molecule = "Cc1cnc(C(=O)Nc2nc3ccc(S(=O)(=O)Nc4ccc(C5(C(F)(F)F)CC5)cc4)cc3[nH]2)cn1"
assigned_class = "False"


---

Tested on: SK-MEL-2 melanoma
Experiment: NCI-60 one-dose screen, 48 h (100 = growth as untreated, 0 = no growth, -100 = all killed)
Conditions: 10 µM unless noted
The panel holds about 83,000 compounds, 20% with a hit somewhere; the sample as a whole holds those more often.
Measure: growth (%)

[[record]]
molecule = "NC(=S)N1N=C(c2ccccc2)CC1c1cn(-c2ccccc2)nc1-c1ccc(OCc2ccccc2)cc1 (centres undefined)"
measure = "growth"
val = 90.4

[[record]]
molecule = "COc1ccc(NC(=O)c2cc(NCc3cc(O)ccc3O)ccc2O)cc1"
measure = "growth"
val = 89.3

[[record]]
molecule = "CCCOc1ccc(/C=N/Nc2cc(C)nc3ccc(Cl)cc23)cc1"
measure = "growth"
val = 91.4

[[record]]
molecule = "CN1CCN(c2ccc(NC3=C(Cl)C(=O)c4ncccc4C3=O)cc2C(F)(F)F)CC1"
measure = "growth"
val = 89


---

System: TK-10 renal
Assay: NCI-60 one-dose screen, 48 h
Conditions: 10 µM unless noted
The panel holds about 83,000 compounds, 20% with a hit somewhere; the sample as a whole holds those more often. Active and inactive are the calls of the source. How the source made its calls: active means growth percent below 10; inactive means the rest.
Classes used: active, inactive

[[record]]
compound = "COc1ccc(C(=O)NNc2nc(Cl)nc(N3CCN(C(c4ccccc4)c4ccccc4)CC3)n2)cc1"
test_system = "TK-10 renal"
assigned_class = "inactive"

[[record]]
compound = "Cc1cc2nc3c4cc([N+](=O)[O-])ccc4n(CCN(C)C)c3nc2cc1C"
test_system = "TK-10 renal"
assigned_class = "active"

[[record]]
compound = "O=[N+]([O-])c1ccc(NC(=S)N/N=C/c2cc3ccccc3n3nnnc23)cc1"
test_system = "TK-10 renal"
assigned_class = "inactive"

[[record]]
compound = "O=C1Nc2cc(-c3ccc(NC(=O)C4CC4)cc3)ccc2/C1=C/c1ccc[nH]1"
test_system = "TK-10 renal"
assigned_class = "inactive"

[[record]]
compound = "C#Cc1cccc(NC(=O)Nc2cccc(NC(=O)CCl)c2)c1"
test_system = "TK-10 renal"
assigned_class = "active"

[[record]]
compound = "Cn1cc(-c2nc(-c3c[nH]c4c(Cl)nccc34)cs2)c2cc(Br)ccc21"
test_system = "TK-10 renal"
assigned_class = "inactive"

[[record]]
compound = "C=C(C)[C@@H]1CC[C@]2(C(=O)N3CCN(C)CC3)CC[C@]3(C)[C@H](CC[C@@H]4[C@@]5(C)C/C(=C/c6cccnc6)C(=O)C(C)(C)[C@@H]5CC[C@]43C)[C@@H]12"
test_system = "TK-10 renal"
assigned_class = "inactive"

[[record]]
compound = "O=C(CCN1CCCC1)Nc1ccc2c(NCc3ccccc3)c3ccccc3nc2c1"
test_system = "TK-10 renal"
assigned_class = "active"

[[record]]
compound = "COc1cccc(-c2ccc3c(c2)NC(=O)/C3=C\\c2ccc[nH]2)c1"
test_system = "TK-10 renal"
assigned_class = "inactive"

[[record]]
compound = "CCCCC[n+]1ccc(SCC(=O)N(C)c2ccc(Oc3ccccc3)cc2)c2ccccc21"
test_system = "TK-10 renal"
assigned_class = "inactive"

[[record]]
compound = "O=C(c1nnc(Nc2ccccc2Br)o1)c1c[nH]c2ccccc12"
test_system = "TK-10 renal"
assigned_class = "inactive"

[[record]]
compound = "CCOC(=O)Oc1c(OC)cc(C(=O)c2ccc(OC)c(O)c2OC)cc1OC"
test_system = "TK-10 renal"
assigned_class = "inactive"

[[record]]
compound = "COc1ccc(CCn2cncc2-c2c[nH]c3ccccc23)cc1"
test_system = "TK-10 renal"
assigned_class = "inactive"

[[record]]
compound = "CCCOc1ccc(/C=N/Nc2cc(C)nc3ccc(Br)cc23)cc1"
test_system = "TK-10 renal"
assigned_class = "inactive"

[[record]]
compound = "CC(C)(C)c1cc(C=O)cc(C(C)(C)C)c1O"
test_system = "TK-10 renal"
assigned_class = "inactive"

[[record]]
compound = "S=c1cc(S)c2cc(Br)ccc2[nH]1"
test_system = "TK-10 renal"
assigned_class = "inactive"

[[record]]
compound = "C=C(C)[C@@H]1CC[C@]2(CN)CC[C@]3(C)[C@H](CC[C@@H]4[C@@]5(C)CCCNC(C)(C)[C@@H]5CC[C@]43C)[C@@H]12"
test_system = "TK-10 renal"
assigned_class = "active"

[[record]]
compound = "N#C/C(=C\\c1ccc([N+](=O)[O-])s1)c1nc2cc(Cl)ccc2s1"
test_system = "TK-10 renal"
assigned_class = "inactive"

[[record]]
compound = "COc1cccc(/C=N/NC(=O)c2cnn3c2NC(c2ccccc2)C3)c1Oc1ccccc1 (stereo not drawn)"
test_system = "TK-10 renal"
assigned_class = "inactive"

[[record]]
compound = "O=C1Nc2cc(-c3cccc([N+](=O)[O-])c3)ccc2/C1=C/c1ccc[nH]1"
test_system = "TK-10 renal"
assigned_class = "inactive"

[[record]]
compound = "CC(C)(C)c1ccc(NS(=O)(=O)c2ccc3nc(NC(=O)c4cnccn4)[nH]c3c2)cc1"
test_system = "TK-10 renal"
assigned_class = "inactive"

[[record]]
compound = "CCOC(=O)c1nc2c3ccccc3ccn2c1C(=O)OCC"
test_system = "TK-10 renal"
assigned_class = "inactive"

[[record]]
compound = "CN1CCN(CCNc2nccc(-c3c(-c4cccc(O)c4)nc4sccn34)n2)S1(=O)=O"
test_system = "TK-10 renal"
assigned_class = "inactive"

